Field: half-life. Provide a value for each of the molecules that follow.
# Experiment description: Half life in Beagle dog at 0.3 mg/kg, iv measured after 0.03 to 24 hrs by UHPLC-TOF method
# Format: ADME, organism-based, Canis lupus familiaris
# Particulars: in vivo, time 0.03-24 hrs
Reply with the number, then its unit.

- Molecule: "NCc1ccc2c(c1)nc(CN1C(=O)C3(CC3)c3ccc(F)cc31)n2C1CCOCC1"
  half-life: "5.2 h"

Request: Using the record for NCc1ccc2c(c1)nc(CN1C(=O)C3(CC3)c3ccc(F)cc31)n2CCCC(F)(F)F [SISUNATOVIR] , report its half-life.
Response: 12.3 h

----------
# Experiment description: Cmax in CD1 mouse at 5 mg/kg, po measured after 0.03 to 24 hrs by UHPLC-TOF method
# Type: ADME, organism-based
# Parameters: route oral, time upper 24 hrs, time lower 0.03 hrs, dose 5 mg/kg
# Particulars: in vivo
Readout type: Cmax (ng/mL)
One number for each entry, in ng/mL.

- Molecule: "CC(C)CCn1c(CN2C(=O)C3(CC3)c3ccccc32)nc2cc(CN)ccc21"
  Cmax / ng/mL: 6

Here is another molecule to look at.
Request: Using the record for NCc1ccc2c(c1)nc(CN1C(=O)C3(CC3)c3cccc(F)c31)n2CCCC(F)(F)F , report its Cmax.
Response: 110

----------
# Experiment description: Half life in CD1 mouse at 10 mg/kg, po measured after 0.083 to 24 hrs by UHPLC-TOF method
# Assay type: ADME, organism-based
# Particulars: in vivo, time 0.083-24 hrs
Field: half-life. Provide a value for each of the molecules that follow.
One number for each entry, in h.

Field: example entries. Status: answers known.
- Molecule: "NCc1ccc2c(c1)nc(CN1C(=O)C3(CC3)c3ccc(F)cc31)n2CCCC(F)(F)F"
  half-life [h]: 3.1
- Molecule: "NCc1ccc2c(c1)nc(CN1C(=O)C3(CC3)c3ccc(F)cc31)n2C1CCC(O)CC1 (centres undefined)"
  half-life [h]: 0.9
- Molecule: "CC(C)CCn1c(CN2C(=O)C3(CC3)c3cccnc32)nc2cc(CN)ccc21"
  half-life [h]: 1

Here is another molecule to look at.
Request: Using the record for NCc1ccc2c(c1)nc(CN1C(=O)C3(CC3)c3ccc(F)cc31)n2C1CCOCC1 , report its half-life.
Response: 1.4

----------
# Experiment description: Oral bioavailability in Sprague-Dawley rat at 50 mg/kg administered via gavage measured after 0.02 to 24 hrs by tandem liquid chromatography/mass spectrometry
# Format: ADME, organism-based
# Particulars: in vivo, time 0.02-24 hrs
Readout type: bioavailability (%)
Answers are plain numbers, in %.

Request: Using the record for NCc1ccc2c(c1)nc(CN1C(=O)C3(CC3)c3ccc(F)cc31)n2CCCC(F)(F)F , report its bioavailability.
Response: 132

----------
# Experiment description: Clearance in Sprague-Dawley rat at 1 mg/kg, iv administered […] measured after 0.02 to 24 hrs by tandem liquid chromatography/mass spectrometry
# Assay type: ADME, organism-based
# Particulars: in vivo, time 0.02-24 hrs
Each entry gets no if its clearance stays under 200 mL/min/kg, and yes if its clearance is 200 mL/min/kg or above.

// known answers, use as guide
- Compound: "CC(C)CCn1c(CN2C(=O)C3(CC3)c3ccccc32)nc2cc(CN)ccc21"
  Assigned label: "no"
- Compound: "NCc1ccc2c(c1)nc(CN1C(=O)C3(CC3)c3cccc(F)c31)n2CCCC(F)(F)F"
  Assigned label: "yes"
- Compound: "NCc1ccc2c(c1)nc(CN1C(=O)C3(CC3)c3ccc(F)cc31)n2CCCC(F)(F)F [SISUNATOVIR]"
  Assigned label: "no"
- Compound: "CC(C)CCn1c(CN2C(=O)C3(CC3)c3cccc(F)c32)nc2cc(CN)ccc21"
  Assigned label: "no"

From here, focus on the item given below.
Request: Form field: clearance at least 200 mL/min/kg? Entry: CC(C)CCn1c(CN2C(=O)C3(CC3)c3ccc(F)cc32)nc2cc(CN)ccc21
Response: no

----------
# Experiment description: Intrinsic clearance in human hepatocytes at 3 uM assessed per million cells measured up to 60 mins by LC-MS/MS analysis
# Format: ADME, cell-based, Hepatocyte
# Particulars: read-out: CLH
Readout type: hepatocyte CLint at 3 µM (µL/min/1e6 cells)
Answers are plain numbers, in µL/min/1e6 cells.

- Molecule: "NCc1ccc2c(c1)nc(CN1C(=O)C3(CC3)c3ccc(F)cc31)n2CCCC(F)(F)F"
  hepatocyte CLint at 3 µM / µL/min/1e6 cells: 6.58

Here is another compound to look at.
Request: Using the record for NCc1ccc2c(c1)nc(CN1C(=O)C3(CC3)c3ccc(F)cc31)n2C1CCOCC1 , report its hepatocyte CLint at 3 µM.
Response: 7.1

----------
Field: Cmax. Provide a value for each of the compounds that follow.
# Experiment description: Cmax in Sprague-Dawley rat at 5 mg/kg, po administered via gavage measured after 0.02 to 24 hrs by tandem liquid chromatography/mass spectrometry
# Format: ADME, organism-based
# Parameters: route oral, dose 5 mg/kg, time upper 24 hrs, time lower 0.02 hrs
# Particulars: in vivo

- Molecule: "NCc1ccc2c(c1)nc(CN1C(=O)C3(CC3)c3ccc(F)cc31)n2CCCC(F)(F)F"
  Recorded value: "74.2 ng/mL"
- Molecule: "CC(C)CCn1c(CN2C(=O)C3(CC3)c3cccc(F)c32)nc2cc(CN)ccc21"
  Recorded value: "31.3 ng/mL"
- Molecule: "CC(C)CCn1c(CN2C(=O)C3(CC3)c3ccccc32)nc2cc(CN)ccc21"
  Recorded value: "6 ng/mL"
- Molecule: "NCc1ccc2c(c1)nc(CN1C(=O)C3(CC3)c3cccc(F)c31)n2CCCC(F)(F)F"
  Recorded value: "44.3 ng/mL"

Request: Using the record for CC(C)CCn1c(CN2C(=O)C3(CC3)c3ccc(F)cc32)nc2cc(CN)ccc21 , report its Cmax.
Response: 44.2 ng/mL

----------
# Experiment description: Apparent permeability across basolateral side to apical side in MDCK-MDR1 cells at 10 uM measured at 60 mins by LC-MS/MS analysis
# Assay type: ADME, cell-based, Canis lupus familiaris
# Particulars: dog
Readout type: Papp B→A at 1 h, 10 µM
Reply with the number, then its unit.

- Molecule: "CS(=O)(=O)CCCn1c(CN2C(=O)C3(CC3)c3ccc(F)cc32)nc2cc(CN)ccc21"
  Papp B→A at 1 h, 10 µM: "0.79 ×10⁻⁶ cm/s"
- Molecule: "O=C1N(Cc2nc3cc(Cl)ccc3n2CCCC(F)(F)F)c2cc(F)ccc2C12CC2"
  Papp B→A at 1 h, 10 µM: "0.14 ×10⁻⁶ cm/s"
- Molecule: "NCc1ccc2c(c1)nc(CN1C(=O)C3(CC3)c3ccc(F)cc31)n2CCCC(F)(F)F"
  Papp B→A at 1 h, 10 µM: "73 ×10⁻⁶ cm/s"
- Molecule: "NCc1ccc2c(c1)nc(CN1C(=O)C3(CC3)c3ccc(F)cc31)n2C1CCC(O)CC1 (configuration not stated)"
  Papp B→A at 1 h, 10 µM: "2.8 ×10⁻⁶ cm/s"
- Molecule: "NCc1ccc2c(c1)nc(CN1C(=O)C3(CC3)c3ccc(F)cc31)n2C1CCOCC1"
  Papp B→A at 1 h, 10 µM: "40.6 ×10⁻⁶ cm/s"
- Molecule: "NCc1ccc2c(c1)nc(CN1C(=O)C3(CC3)c3cccc(F)c31)n2CCCC(F)(F)F"
  Papp B→A at 1 h, 10 µM: "2.7 ×10⁻⁶ cm/s"

Here is another molecule to look at.
Request: Using the record for CC(C)CCn1c(CN2C(=O)C3(CC3)c3cccnc32)nc2cc(CN)ccc21 , report its Papp B→A at 1 h, 10 µM.
Response: 0.1 ×10⁻⁶ cm/s

----------
# Experiment description: Half life in Sprague-Dawley rat at 50 mg/kg, po measured after 0.02 to 24 hrs by UHPLC-TOF method
# Particulars: in vivo
Readout type: half-life (h)
Answers are plain numbers, in h.

Request: Using the record for NCc1ccc2c(c1)nc(CN1C(=O)C3(CC3)c3ccc(F)cc31)n2CCCC(F)(F)F , report its half-life.
Response: 5.9

----------
# Experiment description: Half life in Sprague-Dawley rat at 10 mg/kg, po measured after 0.25 to 24 hrs by UHPLC-TOF method
# Type: ADME, organism-based
# Particulars: in vivo, time 0.25-24 hrs
Readout type: half-life (h)
One number for each entry, in h.

- Molecule: "NCc1ccc2c(c1)nc(CN1C(=O)C3(CC3)c3ccc(F)cc31)n2CCCC(F)(F)F"
  half-life [h]: 9.9

Here is another molecule to look at.
Request: Using the record for NCc1ccc2c(c1)nc(CN1C(=O)C3(CC3)c3cccc(F)c31)n2CCCC(F)(F)F , report its half-life.
Response: 0.8

----------
# Experiment description: Cmax in Sprague-Dawley rat at 50 mg/kg, po measured after 0.02 to 24 hrs by UHPLC-TOF method
# Assay type: ADME, organism-based
# Set-up: route oral, dose 50 mg/kg, time 0.02-24 hrs
# Particulars: in vivo
Readout type: Cmax (ng/mL)
Numbers only, in ng/mL.

Request: Using the record for NCc1ccc2c(c1)nc(CN1C(=O)C3(CC3)c3ccc(F)cc31)n2CCCC(F)(F)F , report its Cmax.
Response: 475
